- MEASURED TARGET: KRAS G12C (GMPPNP-loaded) and cRAF Ras-binding domain (Homo sapiens, UniProt P01116, C118S/C51S/C80L/G12C)
- Construct: truncated version comprising amino acids 1-169
- Sequence (P01116 1-169 isoform P01116-2 G12C/C51S/C80L/C118S): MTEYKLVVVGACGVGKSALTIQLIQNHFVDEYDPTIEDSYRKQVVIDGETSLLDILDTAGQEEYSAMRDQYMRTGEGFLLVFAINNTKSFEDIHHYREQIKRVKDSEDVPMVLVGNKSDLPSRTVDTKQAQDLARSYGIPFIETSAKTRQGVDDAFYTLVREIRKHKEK
- EXPERIMENT NOTES: Inhibition of KRAS G12C and cRAF binding (AlphaScreen)
- PROTOCOL CONDITIONS: KRAS G12C preloaded with GTP analogue GMPPNP, 2 hours preincubation
pIC50: −log10 of the molar value.
Below is a list of entries, each paired with its recorded pIC50 value.

Below: 5 compounds and their reported pIC50.
{"COMPOUND": "C=CC(=O)N1CC(CN(C)c2nc(OCC34CCCN3CCC4)nc3c2CC(C)C(c2nc(N)cc(C)c2C(F)(F)F)C3)C1 (centres unmarked) [Example 207]", "MEASURED VALUE": "≤ 6.30"}
{"COMPOUND": "C=CC(=O)N1CC[C@@H](N(C)c2nc(OC[C@@]34CCCN3C[C@H](F)C4)nc3c(F)c(-c4cc(F)cnc4C4CC4)ncc23)C1 [Example 259]", "MEASURED VALUE": "≤ 6.30"}
{"COMPOUND": "Cc1cc(N)nc(-c2ncc3c(N4CCN(C#N)CC4)nc(OC[C@@]45CCCN4C[C@H](F)C5)nc3c2F)c1C(F)(F)F [Example 49]", "MEASURED VALUE": "6.30 to 7.00"}
{"COMPOUND": "C=CC(=O)N1CC[C@@H](N(C)c2nc(OC[C@@]34CCCN3C[C@H](F)C4)nc3c(F)c(-c4nc(N)cc(C)c4C)ncc23)C1 [Example 171]", "MEASURED VALUE": "6.30 to 7.00"}
{"COMPOUND": "C=CC(=O)N1CC[C@@H](N(C)c2nc(OC[C@@]34CCCN3C[C@H](F)C4)nc3c(F)c(-c4ccccc4OC(F)F)ncc23)C1 [Example 182]", "MEASURED VALUE": "≤ 6.30"}

INPUT: For the compound shown here, C=CC(=O)N1CC(CN(C)c2nc(OC[C@@]34CCCN3C[C@H](F)C4)nc3c(F)c(-c4nc(N)cc(C)c4C)ncc23)C1 [Example 146] , give the reported pIC50.
OUTPUT: ≤ 6.30

INPUT: For the compound shown here, C=CC(=O)N1CC[C@@H](N(C)c2nc(OC[C@@]34CCCN3C[C@H](F)C4)nc3c(F)c(-c4nc(N)ccc4OC(F)F)ncc23)C1 [Example 261] , give the reported pIC50.
OUTPUT: ≤ 6.30

INPUT: For the compound shown here, CN1CC[C@H]1/C=C/C(=O)N1CC[C@@H](N(C)c2nc(OC[C@@]34CCCN3C[C@H](F)C4)nc3c(F)c(-c4nc(N)cc5cccc(Cl)c45)ncc23)C1 [Example 108] , give the reported pIC50.
OUTPUT: 7.00 to 8.00

INPUT: For the compound shown here, CN(C)C/C=C/C(=O)N1CC[C@@H](N(C)c2nc(OC[C@@]34CCCN3C[C@H](F)C4)nc3c(F)c(-c4cccc(Cl)c4C4CC4)ncc23)C1 [Example 184] , give the reported pIC50.
OUTPUT: 7.00 to 8.00

INPUT: For the compound shown here, C=CC(=O)N1CC[C@@H](N(C)c2nc(OCC34CCCN3CCC4)nc3c2C[C@H](C)[C@@H](c2nc(N)cc(C)c2C(F)(F)F)C3)C1 [Example 148] , give the reported pIC50.
OUTPUT: 6.30 to 7.00

INPUT: For the compound shown here, Cc1cc(N)nc(-c2ncc3c(N(C)CC4CN(C(=O)/C=C/c5nc(C(C)C)no5)C4)nc(OC[C@@]45CCCN4C[C@H](F)C5)nc3c2F)c1C(F)(F)F [Example 153] , give the reported pIC50.
OUTPUT: > 8.00

INPUT: For the compound shown here, C=CC(=O)N1C[C@H](F)[C@@H](N(C)c2nc(OC[C@@]34CCCN3C[C@H](F)C4)nc3c(F)c(-c4cc(O)cc(Cl)c4C4CC4)ncc23)C1 [Example 243] , give the reported pIC50.
OUTPUT: > 8.00

INPUT: For the compound shown here, C=CC(=O)N1CC[C@@H](N(C)c2nc(OC[C@@]34CCCN3C[C@H](F)C4)nc3c(F)c(-c4cccc(C(F)F)c4C4CC4)ncc23)C1 [Example 195] , give the reported pIC50.
OUTPUT: ≤ 6.30

INPUT: For the compound shown here, C=CC(=O)N1CC[C@@H](N(C)c2nc(OC[C@@]34CCCN3C[C@H](F)C4)nc3c(F)c(-c4cccc(Cl)c4C4CC4)ncc23)[C@H]1C [Example 236] , give the reported pIC50.
OUTPUT: 6.30 to 7.00

INPUT: For the compound shown here, Cc1cc(N)nc(-c2ncc3c(N(C)CC4CN(C(=O)/C=C/c5nc(C(C)C)no5)C4)nc(OC[C@@]45CCCN4C[C@H](F)C5)nc3c2F)c1C(F)(F)F [Example 154] , give the reported pIC50.
OUTPUT: 7.00 to 8.00

INPUT: For the compound shown here, Cc1cc(N)nc(-c2ncc3c(N(C)[C@@H]4CCN(C(=O)/C=C/C5CCN5C)C4)nc(OC[C@@]45CCCN4C[C@H](F)C5)nc3c2F)c1C(F)(F)F (stereo in doubt) [Example 134] , give the reported pIC50.
OUTPUT: > 8.00

INPUT: For the compound shown here, CN(C)C/C=C/C(=O)N1CC[C@@H](N(C)c2nc(OC[C@@]34CCCN3C[C@H](F)C4)nc3c(F)c(-c4cc(O)cc(Cl)c4C4CC4)ncc23)C1 [Example 197] , give the reported pIC50.
OUTPUT: > 8.00

###

- MEASURED TARGET: KRAS G12C (GMPPNP-loaded) and cRAF Ras-binding domain (Homo sapiens, UniProt P01116, C118S/C51S/C80L/G12C)
- Construct: truncated version comprising amino acids 1-169
- EXPERIMENT NOTES: Inhibition of KRAS G12C and cRAF binding (AlphaScreen)
- PROTOCOL CONDITIONS: KRAS G12C preloaded with GTP analogue GMPPNP, 2 hours preincubation
pIC50: −log10 of the molar value.
PROPERTY LABEL: pIC50

{"MOLECULE": "C=CC(=O)N1CC[C@@H](N(C)c2nc(OC[C@@]34CCCN3C[C@H](F)C4)nc3c(F)c(-c4nc(N)ccc4C4CC4)ncc23)C1 [Example 166]", "pIC50": "≤ 6.30"}

INPUT: For the molecule shown here, C=CC(=O)N1CC[C@@H](N(C)c2nc(OCC34CCCN3CCC4)nc3c2CC(C)C(c2nc(N)cc(C)c2C(F)(F)F)C3)C1 (stereo partly drawn) [Example 98] , give the reported pIC50.
OUTPUT: 6.30 to 7.00

INPUT: For the molecule shown here, C=CC(=O)N1CC[C@@H](N(C)c2nc(OC[C@@]34CCCN3C[C@H](F)C4)nc3c(F)c(-c4cccc(Cl)c4C4CC4)ncc23)C1 [Example 252] , give the reported pIC50.
OUTPUT: 7.00 to 8.00

###

Below is a list of entries, each paired with its recorded IC50 value.
- MEASURED TARGET: KRAS G12C (GMPPNP-loaded) and cRAF Ras-binding domain (Homo sapiens, UniProt P01116, C118S/C51S/C80L/G12C)
- Construct: truncated version comprising amino acids 1-169
- EXPERIMENT NOTES: Inhibition of KRAS G12C and cRAF binding (AlphaScreen)
- PROTOCOL CONDITIONS: KRAS G12C preloaded with GTP analogue GMPPNP, 2 hours preincubation

Below: 5 molecules and their reported IC50.
{"MOLECULE": "C=CC(=O)N1CC[C@@H](N(C)c2nc(OC[C@@]34CCCN3C[C@H](F)C4)nc3c(F)c(-c4cccc(F)c4C4CC4)ncc23)C1 [Example 220]", "IC50": "≥ 500 nM"}
{"MOLECULE": "C=CC(=O)N1CC[C@@H](N(C)c2nc(OC[C@@]34CCCN3C[C@H](F)C4)nc3c(F)c(-c4c(Cl)c(C)cc5[nH]ncc45)ncc23)C1 [Example 194]", "IC50": "10 to 100 nM"}
{"MOLECULE": "C=CC(=O)N1CC(CN(C)c2nc(OCC34CCCN3CCC4)nc3c(F)c(-c4nc(N)cc(C)c4C4CC4)ncc23)C1 [Example 131]", "IC50": "≥ 500 nM"}
{"MOLECULE": "C=CC(=O)N1CC[C@@H](N(C)c2nc(OC[C@@]34CCCN3C[C@H](F)C4)nc3c(F)c(-c4nc(N)cc5cccc(Cl)c45)ncc23)C1 [Example 74]", "IC50": "10 to 100 nM"}
{"MOLECULE": "Cc1nsc(/C=C/C(=O)N2CC(CN(C)c3nc(OC[C@@]45CCCN4C[C@H](F)C5)nc4c(F)c(-c5nc(N)cc(C)c5C(F)(F)F)ncc34)C2)n1 [Example 4]", "IC50": "10 to 100 nM"}

INPUT: For the molecule shown here, Cc1cc(/C=C/C(=O)N2CC(CN(C)c3nc(OC[C@@]45CCCN4C[C@H](F)C5)nc4c(F)c(-c5cccc(Cl)c5C5CC5)ncc34)C2)nc(C)n1 [Example 200] , give the reported IC50.
OUTPUT: 100 to 500 nM

INPUT: For the molecule shown here, Cc1cc(N)nc(-c2ncc3c(N(C)[C@@H]4C[C@@H](C)N(C#N)C4)nc(OC[C@@]45CCCN4C[C@H](F)C5)nc3c2F)c1C(F)(F)F (single isomer, unassigned) [Example 40] , give the reported IC50.
OUTPUT: 10 to 100 nM

INPUT: For the molecule shown here, Cc1noc(/C=C/C(=O)N2CC[C@@H](N(C)c3nc(OC[C@@]45CCCN4C[C@H](F)C5)nc4c3CC(C)C(c3nc(N)cc(C)c3C(F)(F)F)C4)C2)n1 (stereo partly drawn) [Example 115] , give the reported IC50.
OUTPUT: < 10 nM

INPUT: For the molecule shown here, CN(c1nc(OC[C@@]23CCCN2C[C@H](F)C3)nc2c(F)c(-c3cccc(Cl)c3C3CC3)ncc12)[C@@H]1CCN(C(=O)C#C[C@@]2(C)CCCN2)C1 [Example 215] , give the reported IC50.
OUTPUT: < 10 nM

INPUT: For the molecule shown here, CN1CC[C@@H]1/C=C/C(=O)N1CC[C@@H](N(C)c2nc(OC[C@@]34CCCN3C[C@H](F)C4)nc3c(F)c(-c4cccc(Cl)c4C(F)(F)F)ncc23)C1 [Example 242] , give the reported IC50.
OUTPUT: 10 to 100 nM

INPUT: For the molecule shown here, Cc1cc(/C=C/C(=O)N2CC(CN(C)c3nc(OC[C@@]45CCCN4C[C@H](F)C5)nc4c(F)c(-c5cc(O)cc(Cl)c5C5CC5)ncc34)C2)nc(C)n1 [Example 204] , give the reported IC50.
OUTPUT: 100 to 500 nM

INPUT: For the molecule shown here, C=CC(=O)N1CC[C@@H](N(C)c2nc(OC[C@@]34CCCN3C[C@H](F)C4)nc3c(F)c(-c4cccc(OC(F)F)c4C4CC4)ncc23)C1 [Example 187] , give the reported IC50.
OUTPUT: ≥ 500 nM

INPUT: For the molecule shown here, C=CC(=O)N1CC[C@@H](N(C)c2nc(OC[C@@]34CCCN3C[C@H](F)C4)nc3c(F)c(-c4cc(C(F)F)cc(Cl)c4C4CC4)ncc23)C1 [Example 263] , give the reported IC50.
OUTPUT: ≥ 500 nM

INPUT: For the molecule shown here, Cc1cc(/C=C/C(=O)N2CC[C@@H](N(C)c3nc(OC[C@@]45CCCN4C[C@H](F)C5)nc4c(F)c(-c5cccc(Cl)c5C5CC5)ncc34)C2)nc(C)n1 [Example 247] , give the reported IC50.
OUTPUT: 100 to 500 nM

INPUT: For the molecule shown here, CN(c1nc(OC[C@@]23CCCN2C[C@H](F)C3)nc2c(F)c(-c3cccc(Cl)c3C3CC3)ncc12)[C@@H]1CCN(C(=O)C#C[C@@]2(C)CCCN2C)C1 [Example 235] , give the reported IC50.
OUTPUT: 10 to 100 nM

Each recorded value in this set is attributed to patent US20260256789A1.
